Overview of recorded binding (% of control) for various compounds
system: anti-desmoglein-3 scFv antibody binding to human DSG3; test: blockers of pathogenic pemphigus antibody–desmoglein-3 binding – biochemical, validation compound set, bead-based, flow cytometry, pilot screen (AID 588368); conditions: Protein G beads, DSG3-Fc, scFv-GFP binding, at 10 µM, stronger effect = lower value;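 note: signal is the median channel fluorescence of bead-bound GFP antibody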

>  <compound>
COc1ccc2[nH]c(=O)c(CNC3CCCCC3)cc2c1

>  <binding (% of control) (%)>
95.5

$$$$
>  <compound>
COc1ccc2c(c1)C=CC1(O2)N(CCO)c2ccccc2C1(C)C (stereo unspecified)

>  <binding (% of control) (%)>
99.2

$$$$
>  <compound>
NCCc1ccc(O)c(O)c1

>  <binding (% of control) (%)>
94.3

$$$$
>  <compound>
COc1cccc(-n2c(C)c3c(OC)cccc(=O)c3c2C)c1

>  <binding (% of control) (%)>
103

$$$$
>  <compound>
COc1cc2cc(C(=O)O)[nH]c2c(OC)c1OC

>  <binding (% of control) (%)>
98.7

$$$$
>  <compound>
COc1ccc(C(C)N2CC34C=CC(O3)C(C(=O)OCC(C)C)C4C2=O)cc1 (stereo unspecified)

>  <binding (% of control) (%)>
96.9

$$$$
>  <compound>
CC[C@H]1CN2CCc3cc(OC)c(OC)cc3[C@@H]2C[C@@H]1C[C@H]1NCCc2cc(OC)c(OC)cc21

>  <binding (% of control) (%)>
106

$$$$
>  <compound>
COc1ccc(CNC(=O)C2CCCN2C)cc1OC (stereo unspecified)

>  <binding (% of control) (%)>
104

$$$$
>  <compound>
CC(=O)CSc1ncnc2c1cnn2-c1ccccc1

>  <binding (% of control) (%)>
105

$$$$
>  <compound>
COc1ccc(NC2=C(Cl)C(=O)N(c3ccccc3)C2=O)c(OC)c1

>  <binding (% of control) (%)>
97

$$$$
>  <compound>
O=C(Cc1ccccc1[N+](=O)[O-])NCCCN1CCOCC1

>  <binding (% of control) (%)>
99.9

$$$$
